- assayedTarget: TBK1 (Homo sapiens (Human), UniProt Q9UHD2)
- Sequence (Q9UHD2 whole entry): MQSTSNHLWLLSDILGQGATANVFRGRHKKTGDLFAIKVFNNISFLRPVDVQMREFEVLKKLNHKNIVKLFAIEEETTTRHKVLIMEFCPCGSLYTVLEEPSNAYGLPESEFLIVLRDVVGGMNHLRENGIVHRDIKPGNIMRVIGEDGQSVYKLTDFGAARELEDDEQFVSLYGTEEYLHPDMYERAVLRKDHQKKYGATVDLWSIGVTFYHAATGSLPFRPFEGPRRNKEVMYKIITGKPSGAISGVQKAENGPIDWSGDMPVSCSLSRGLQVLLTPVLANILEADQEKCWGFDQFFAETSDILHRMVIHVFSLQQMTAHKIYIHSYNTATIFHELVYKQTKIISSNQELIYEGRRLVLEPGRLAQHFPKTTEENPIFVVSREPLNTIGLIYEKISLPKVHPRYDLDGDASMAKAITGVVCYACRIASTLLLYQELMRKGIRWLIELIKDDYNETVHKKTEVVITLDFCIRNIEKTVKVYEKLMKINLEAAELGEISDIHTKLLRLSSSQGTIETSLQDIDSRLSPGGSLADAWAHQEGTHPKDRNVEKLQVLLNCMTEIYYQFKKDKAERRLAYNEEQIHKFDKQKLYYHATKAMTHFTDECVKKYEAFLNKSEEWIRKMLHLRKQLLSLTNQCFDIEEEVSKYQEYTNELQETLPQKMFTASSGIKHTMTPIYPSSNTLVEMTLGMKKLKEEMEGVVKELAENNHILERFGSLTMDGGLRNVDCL
- testSummary: Lanthascreen TR-FRET kinase inhibition assay, TBK1
- Type: biochemical
- conditionSet: 20 μM ATP (apparent Km), 8 nM kinase, 2.5 h
pIC50: −log10 of the molar value.
propertyMeasured: pIC50

Worked set:
Entry under review: N#Cc1cc(-c2ccnc(Nc3ccc(CN4CCOCC4)nc3)n2)cnc1N1CCC(CCC(N)=O)C1 (centres unmarked) . Reported pIC50?
> 7.00

Another compound to look at: `N#Cc1cc(-c2nc(Nc3ccc(CN4CCOCC4)nc3)ncc2F)cnc1NC1CC1`
> 7.00

Another compound to look at: `N#Cc1cc(-c2ccnc(Nc3ccc(C(N)=O)nc3)n2)cnc1N1CC[C@H](F)C1`
> 7.52

Another compound to look at: `N#Cc1cc(-c2ccnc(Nc3cnc(N4CCOCC4)nc3)n2)cnc1N1CC[C@H](F)C1`
> 7.00

Another compound to look at: `N#Cc1nc(-c2ccnc(Nc3ccc(CN4CCNC(=O)C4)nc3)n2)ccc1N1CC[C@H](F)C1`
> 7.82

---
Entry under review: `N#Cc1cc(-c2ccnc(Nc3ccc(CN4CCNC(=O)C4)nc3)n2)cnc1N1CC[C@H](F)C1` . Reported pIC50?
> 7.82
